These data points were gathered from PubChem BioAssay.

# experiment: splicing luciferase reporter signal modulators, primary screen, spliceosome inhibition project, cell-based, HEK293, splice +/- reporter (AID 1101);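 further: HEK293 cells carrying a splicing-competent luciferase reporter gene; test concentration not given here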
# measurement-parameters: luminescence, 24 h, higher = more signal, called active from +8 up or from −8 down
// map z-score to label using LOW = under -0.1, MEDIUM = from -0.1 up to 0.3, HIGH = 0.3 and over

# compound, answer-label
rows = [
    ("O=C1[C@H]2[C@H]3[C@H](O)[C@H](O)CC(=NO[C@@H]4O[C@H](CO)[C@@H](O)[C@H](O)[C@H]4O)[C@H]3CC[C@H]2C(=O)N1C[C@@H]1CCCO1", "MEDIUM"),
]

# classify by z-score band: CC(C)=CCCC(C)=CCON=C1[C@H]2CCn3c(=O)n(-c4ccccc4)c(=O)n3[C@H]2[C@H](O)[C@@H]2O[C@H]12
HIGH

Class (by measured z-score) for CCOC(=O)NN=C1C[C@@H](O)[C@@H](O)[C@@H]2[C@@H]3C(=O)N(c4ccc(F)cc4F)C(=O)[C@@H]3CC[C@H]12
LOW

# bin lookup: classify Cc1ccc2[nH]c3nc(CCCn4ccnc4-c4ccccc4)nnc3c2c1 by its z-score
LOW

Form: Item = CCc1cc2c(nc1CC)CCN(CCC(C)=NOCC[C@@H]1C=C[C@H](OC(C)=O)[C@@H](COC(C)=O)O1)C2 ; Class = ?
MEDIUM

Class label required: CCOC(=O)CCN1C(=O)[C@H]2[C@H]3[C@H](O)[C@H](O)CC(=NOCC=C(C)CCC=C(C)C)[C@H]3CC[C@H]2C1=O
MEDIUM

Place this compound in its band: COc1ccc(COC(=O)NN=C2C[C@@H](O)[C@@H](O)[C@@H]3[C@@H]4C(=O)N(C[C@@H]5CCCO5)C(=O)[C@@H]4CC[C@H]23)cc1
MEDIUM

Sort into band: COC(=O)[C@H](C)NC(=O)CCC1CC(OC(=O)NCc2cccc3ccccc23)CC2(CCCC(COC(=O)NCc3ccccc3)O2)O1 (stereo partly drawn)
LOW

State the class of the compound shown: COc1ccc(OC[C@H]2CN3[C@@H](CC[C@@H](C)[C@@H]3c3ccc(Br)cc3)C(=O)O2)cc1
LOW

Kindly state the category for this compound: CCOC(=O)CCN1C(=O)[C@H]2[C@H]3[C@H](O)[C@H](O)CC(=O)[C@@H]3CC[C@H]2C1=O
MEDIUM

Which class is correct for the following compound? CC(=O)OC[C@H]1O[C@H](C#CCC2CCCCC2)C=C[C@@H]1OC(C)=O
LOW

Into which bin does this compound go? CC1(C)O[C@H]2O[C@H]([C@H](O)CON=C3[C@H]4CCn5c(=O)n(-c6ccccc6)c(=O)n5[C@H]4[C@H](O)[C@@H]4O[C@H]34)[C@H](O)[C@H]2O1
HIGH

Classify this compound: COc1ccc(COC(=O)NN=C2C[C@@H](O)[C@@H](O)[C@@H]3[C@@H]4C(=O)N(Cc5ccc6c(c5)OCO6)C(=O)[C@@H]4CC[C@H]23)cc1
HIGH

Which class is correct for the following compound? COc1cccc([C@H](O)Cn2cc(-c3ccc(CON=C(C)C)cc3)nn2)c1
HIGH

Categorize the following entry: CO[C@@H]1COC(=O)CC=C[C@H](C)[C@H](OC)COC(=O)[C@@H]2CCCN2C(=O)CC=C[C@H]1C
LOW

Which bin should I file CC(CCN1CCCCc2nc(C)c(C)cc21)=NO[C@H](C)c1cn([C@@H]2COC[C@H]2O)nn1 under?
HIGH

Band of COc1ccc(COC(=O)NN=C2C[C@@H](O)[C@@H](O)[C@@H]3[C@@H]4C(=O)N(Cc5ccccc5)C(=O)[C@@H]4CC[C@@H]23)cc1 ?
LOW
